Quick note: these are pKi numbers for system: UniProtKB P35372
Sequence (P35372 whole entry): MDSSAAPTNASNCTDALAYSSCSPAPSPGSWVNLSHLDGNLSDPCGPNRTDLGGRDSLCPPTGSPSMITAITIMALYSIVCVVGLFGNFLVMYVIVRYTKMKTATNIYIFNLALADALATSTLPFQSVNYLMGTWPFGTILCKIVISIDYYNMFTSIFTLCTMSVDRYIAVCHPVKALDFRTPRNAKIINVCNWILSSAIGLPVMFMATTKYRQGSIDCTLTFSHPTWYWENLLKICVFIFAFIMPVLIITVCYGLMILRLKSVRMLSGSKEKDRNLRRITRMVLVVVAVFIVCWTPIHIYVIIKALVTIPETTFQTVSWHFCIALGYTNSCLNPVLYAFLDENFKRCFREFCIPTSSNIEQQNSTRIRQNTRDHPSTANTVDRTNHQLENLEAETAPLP
Answers are plain numbers, as −log10 of the molar value.

Answered examples (5):
CC[C@H](C)[C@H](NC(=O)[C@H](CCCN=C(N)N)NC(=O)[C@H](CCCN=C(N)N)NC(=O)[C@H](CC(C)C)NC(=O)[C@H](Cc1ccccc1)NC(=O)CNC(=O)[C@H]1CCCN1C(=O)[C@@H](N)Cc1ccc(O)cc1)C(=O)N[C@@H](CCCN=C(N)N)C(=O)N1CCC[C@H]1C(=O)N[C@@H](CCCCN)C(N)=O ... 5.77
CC[C@H](C)[C@H](NC(=O)[C@H](CCCN=C(N)N)NC(=O)[C@H](CCCN=C(N)N)NC(=O)[C@H](CC(C)C)NC(=O)[C@H](Cc1ccccc1)NC(=O)[C@H]1CCCN1C(=O)CNC(=O)[C@@H](N)Cc1ccc(O)cc1)C(=O)N[C@@H](CCCN=C(N)N)C(=O)N1CCC[C@H]1C(=O)N[C@@H](CCCCN)C(N)=O ... 5.08
CC[C@H](C)[C@H](NC(=O)[C@H](CCCNC(=N)N)NC(=O)[C@H](CCCNC(=N)N)NC(=O)[C@H](CC(C)C)NC(=O)[C@H](Cc1ccccc1)NC(=O)CNC(=O)[C@@H]1CCCN1C(=O)[C@@H](N)Cc1ccc(O)cc1)C(=O)N[C@@H](CCCNC(=N)N)C(=O)N1CCC[C@H]1C(=O)N[C@@H](CCCCN)C(N)=O ... 5.49
CC[C@H](C)[C@H](NC(=O)[C@H](CCCN=C(N)N)NC(=O)[C@H](CCCN=C(N)N)NC(=O)[C@H](CC(C)C)NC(=O)[C@H](Cc1ccccc1)NC(=O)[C@@H]1CCCN1C(=O)CNC(=O)[C@@H](N)Cc1ccc(O)cc1)C(=O)N[C@@H](CCCN=C(N)N)C(=O)N1CCC[C@H]1C(=O)N[C@@H](CCCCN)C(N)=O ... 5.24
CC[C@H](C)[C@H](NC(=O)[C@H](CCCN=C(N)N)NC(=O)[C@H](CCCN=C(N)N)NC(=O)[C@H](CC(C)C)NC(=O)[C@H](Cc1ccccc1)NC(=O)CNC(=O)CNC(=O)[C@@H](N)Cc1ccc(O)cc1)C(=O)N[C@@H](CCCN=C(N)N)C(=O)N1CCC[C@H]1C(=O)N[C@@H](CCCCN)C(N)=O ... 8.12

Attention now shifts to the item below.
Prompt: Given the entry CC[C@H](C)[C@H](NC(=O)[C@H](CCCNC(=N)N)NC(=O)[C@H](CCCNC(=N)N)NC(=O)[C@H](CC(C)C)NC(=O)[C@H](Cc1ccccc1)NC(=O)[C@@H](C)NC(=O)CNC(=O)[C@@H](N)Cc1ccc(O)cc1)C(=O)N[C@@H](CCCNC(=N)N)C(=O)N1CCC[C@H]1C(=O)N[C@@H](CCCCN)C(N)=O , report its measured pKi.
Completion: 7.17

* * *

Kindly state pKi for each of the entries shown.
system.under.test: Delta-type opioid receptor (Homo sapiens)
Sequence (P41143 whole entry): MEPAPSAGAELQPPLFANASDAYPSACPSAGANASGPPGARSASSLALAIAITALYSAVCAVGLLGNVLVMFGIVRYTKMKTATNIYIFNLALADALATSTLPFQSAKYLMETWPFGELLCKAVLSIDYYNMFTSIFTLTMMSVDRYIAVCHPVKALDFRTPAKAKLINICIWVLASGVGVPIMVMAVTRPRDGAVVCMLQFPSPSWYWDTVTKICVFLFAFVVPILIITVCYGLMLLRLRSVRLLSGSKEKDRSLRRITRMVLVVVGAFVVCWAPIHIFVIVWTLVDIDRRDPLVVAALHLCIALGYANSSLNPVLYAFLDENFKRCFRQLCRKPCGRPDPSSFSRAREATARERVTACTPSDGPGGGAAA
test.details: Binding affinity towards cloned human Opioid receptor delta 1 in CHO cell membranes.
Format: cell-based
Give bare numbers, as −log10 of the molar value.

Answered examples (3):
CC[C@H](C)[C@H](NC(=O)[C@H](CCCN=C(N)N)NC(=O)[C@H](CCCN=C(N)N)NC(=O)[C@H](CC(C)C)NC(=O)[C@H](Cc1ccccc1)NC(=O)[C@@H]1CCCN1C(=O)CNC(=O)[C@@H](N)Cc1ccc(O)cc1)C(=O)N[C@@H](CCCN=C(N)N)C(=O)N1CCC[C@H]1C(=O)N[C@@H](CCCCN)C(N)=O ... 5.06
CC[C@H](C)[C@H](NC(=O)[C@H](CCCN=C(N)N)NC(=O)[C@H](CCCN=C(N)N)NC(=O)[C@H](CC(C)C)NC(=O)[C@H](Cc1ccccc1)NC(=O)[C@H]1CCCN1C(=O)CNC(=O)[C@@H](N)Cc1ccc(O)cc1)C(=O)N[C@@H](CCCN=C(N)N)C(=O)N1CCC[C@H]1C(=O)N[C@@H](CCCCN)C(N)=O ... 5.15
CC[C@H](C)[C@H](NC(=O)[C@H](CCCNC(=N)N)NC(=O)[C@H](CCCNC(=N)N)NC(=O)[C@H](CC(C)C)NC(=O)[C@H](Cc1ccccc1)NC(=O)CNC(=O)[C@@H]1CCCN1C(=O)[C@@H](N)Cc1ccc(O)cc1)C(=O)N[C@@H](CCCNC(=N)N)C(=O)N1CCC[C@H]1C(=O)N[C@@H](CCCCN)C(N)=O ... 5.17

Attention now shifts to the item below.
Prompt: // fetch Delta-type opioid receptor (Homo sapiens) pKi for CC[C@H](C)[C@H](NC(=O)[C@H](CCCN=C(N)N)NC(=O)[C@H](CCCN=C(N)N)NC(=O)[C@H](CC(C)C)NC(=O)[C@H](Cc1ccccc1)NC(=O)CNC(=O)[C@H]1CCCN1C(=O)[C@@H](N)Cc1ccc(O)cc1)C(=O)N[C@@H](CCCN=C(N)N)C(=O)N1CCC[C@H]1C(=O)N[C@@H](CCCCN)C(N)=O
Completion: 5.41
